Data origin, for the record: paper PMC3711437

Target: E. coli gyrase holoenzyme (GyrA and GyrB) (Escherichia coli, UniProt P0AES4+P0AES6)
Construct: His-tagged GyrA and GyrB expressed separately in E. coli BL21-CodonPlus(DE3)-RIL, tags cleaved with TEV protease, Ni-NTA and S200 purified; used as holoenzyme
Assay: supercoiling, fluorescent cruciform extrusion, NCC screen
Format: biochemical
PROPERTY_MEASURED: inhibition at 50 µM (%)
Quick note: give the figure in %, leave out the unit.

In plain terms, `CCn1cc(C(=O)O)c(=O)c2cc(F)c(N3CCN(C)CC3)cc21` has a documented inhibition at 50 µM of 95

Recorded result, `CN1CCN(c2c(F)cc3c(=O)c(C(=O)O)cn4c3c2SCC4)CC1` , inhibition at 50 µM: 89

Entry `CCN1CCN(c2cc3c(cc2F)c(=O)c(C(=O)O)cn3C2CC2)CC1` — recorded inhibition at 50 µM = 67

Just so you know, measured inhibition at 50 µM for NC1CCN(c2nc3c(cc2F)c(=O)c(C(=O)O)cn3-c2ccc(F)cc2F)C1 (stereo not shown) came out at 96
